Test Summary: chemical genetic growth profiling, strain panel (AID 1159580);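 further: tested at 20 µM; growth read once vehicle control cultures reached saturation at 30 °C; 1 = growth at the plate median or of vehicle wells; lower values mean less growth of the strain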
Protocol Conditions: S. cerevisiae deletion strains, growth OD, locus YLR371W, strain rom2, hits give low values
In all, about 5,500 compounds went through this assay and about 2,000 (36%) were called active. Another 18% or so got no clear call; they are omitted. This is one part of the list.
Listed here: items and their measured normalized growth.
Format: numeric value only, no unit, no commentary.

Here's what some known entries look like.
Oc1cc(O)cc(/C=C/c2ccccc2)c1 | 0.933
NCc1ccc(S(N)(=O)=O)cc1 | 0.985
O=C(O)CNCP(=O)(O)O | 1.01
O=C(O)CCCCCCCCCCCCC1C=CCC1 (centres undefined) | 0.992
O=C1O[C@@H](CO)[C@H](O)[C@@H](O)[C@@H]1O | 1.01
COc1ccc(-c2cc(C(F)F)nn2-c2ccc(S(N)(=O)=O)cc2)cc1F | 1.03

Let us move to another entry and its normalized growth.
Short answer for `Nc1nccs1` : normalized growth was 0.999

* * *

Test Summary: chemical genetic growth profiling, strain panel (AID 1159580)
Protocol Conditions: S. cerevisiae deletion strains, growth OD, locus YDR388W, hits give low values
Screen size: about 5,500 compounds; about 2,000 (36%) were called active. Inconclusive results (about 18%) are left out. Some of the results follow.
Assay Readout: normalized growth
Hey, just send me the number, nothing else.

COc1cc(C(=O)O)c(O)c2c1OCO2 | 1
CCOP(=S)(OCC)SCSP(=S)(OCC)OCC | 0.994
CC1(C)C2CC(=O)O[C@@]3(C)C4=CC(=O)O[C@@H](c5ccoc5)[C@]4(C)CCC3[C@@]2(C)C=C[C@H]1O (stereo partly specified) | 0.99
CC(=O)Oc1cc(C)c2c(c1C(OC(C)=O)OC(C)=O)Oc1c(c(C)c(OC(C)=O)c3c1C(OC(C)=O)OC3=O)OC2=O (stereo unspecified) | 0.982
O=C1O[C@@H](CO)[C@H](O)[C@@H](O)[C@@H]1O | 1.01
NC(=O)c1cnccn1 | 1.01
COc1cc(C)c2c(c1C=O)Oc1c(c(C)c(O)c3c1C(O)OC3=O)OC2=O (stereo unspecified) | 0.997
CCOP(=S)(OCC)SCCSCC | 0.984
c1ccc2[nH]c(-c3cscn3)nc2c1 | 1.01
C[C@@H]1CC2C3CCC4=CC(=O)C=C[C@]4(C)[C@@]3(F)[C@@H](O)C[C@]2(C)[C@@]1(O)C(=O)COP(=O)(O)O (stereo partly specified) | 1

Please turn your attention to the following entry.
Form field normalized growth, entry COc1c(C2COc3cc4c(cc3C2=O)CC(O)C(C)(C)O4)ccc2c1CCC(C)(C)O2 (stereo unspecified) : 1.03

* * *

Test Summary: chemical genetic growth profiling, strain panel (AID 1159580)
Protocol Conditions: S. cerevisiae deletion strains, growth OD, locus YNL224C, strain SQS1, hits give low values
About 2,000 (36%) of roughly 5,500 compounds were called active. Not shown: some 18% with an inconclusive outcome. This is one part of the list.
Reported normalized growth values follow for various molecules
Answer using only a numeral; do not append any unit.

These solved cases illustrate the format of a correct answer.
C=CCN1CC[C@]23c4c5ccc(O)c4O[C@H]2/C(=N\NC(=O)c2ccccc2)CC[C@@]3(O)[C@H]1C5 | 1
CCN(CCCl)Cc1ccccc1Br | 0.995
CCn1cc(C(=O)O)c(=O)c2ccc(Cc3ccccc3)nc21 | 0.965
CC1=C(/C=C/C(C)=C/C=C/C(C)=C/C(=O)Nc2ccc(O)cc2)C(C)(C)CCC1 | 0.998
CC1=C(C(=O)O)N2C(=O)[C@@H](NC(=O)C(N)C3=CCC=CC3)[C@H]2SC1 (some centres not stated) | 1.01

// sample CN(C(=O)Cc1ccc(Cl)c(Cl)c1)C(CN1CCCC1)c1cccc(OCC(=O)O)c1 (configuration not stated) , its normalized growth was 0.99

So for `COc1cccc(-c2cc(=O)c3ccccc3o2)c1N` , the logged normalized growth turned out to be 0.907

`Cc1cn([C@H]2C[C@@H](N=[N+]=[N-])[C@@H](CO)O2)c(=O)[nH]c1=O` has a reported normalized growth of 0.974

// normalized growth value for `CCCN1CCc2cc(O)cc3c2[C@H]1Cc1ccc(O)c(O)c1-3` : 1.01

Measured normalized growth, `C=CCN1CCc2cccc3c2[C@H]1Cc1ccc(O)c(O)c1-3` : 0.985

Summary for this molecule, CC(COc1ccccc1)N(CCCl)Cc1ccccc1 (configuration not stated) : normalized growth is 0.984

The recorded normalized growth for `COc1ccccc1N1CCN(CCCNc2c(C)c(=O)n(C)c(=O)n2C)CC1` is 0.995

Looking up CN(C)CCCO[C@@H]1[C@H]2OC(C)(C)O[C@H]2O[C@@H]1C(O)CO (some centres not stated) , I found its normalized growth recorded as 1

normalized growth in this record for `N=C(N)SCCc1cccc(CCSC(=N)N)c1` : 1.05

Item: `NC(=O)CI` | normalized growth: 0.972

get_value(item= `COCC(=O)O[C@]1(CCN(C)CCCc2nc3ccccc3[nH]2)CCc2cc(F)ccc2[C@@H]1C(C)C` , readout=normalized growth) returns 1.03

The reported normalized growth of the molecule `c1ccc(C2CC2)c(OCC2=NCCN2)c1` was 0.994

Sure, the documented normalized growth for `Brc1c(NC2=NCCN2)ccc2nccnc12` is 0.994

The molecule listed as `O=C1N=C(O)CN1/N=C\c1ccc(-c2ccc([N+](=O)[O-])cc2)o1` shows normalized growth equal to 0.998

* * *

Below, each entry is listed alongside its reported normalized growth.
Test Summary: chemical genetic growth profiling, strain panel (AID 1159580);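 further: tested at 20 µM; growth read once vehicle control cultures reached saturation at 30 °C; 1 = growth at the plate median or of vehicle wells; lower values mean less growth of the strain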
Protocol Conditions: S. cerevisiae deletion strains, growth OD, locus YNL067W, strain RPL9B, hits give low values
In all, about 5,500 compounds went through this assay and about 2,000 (36%) were called active. Not shown: some 18% with an inconclusive outcome. Some of the results follow.
Give the figure by itself; no unit, no explanation.

// below: answered compounds
CC(=O)O[C@H]1CC[C@@]2(C)C(=CCC3C2CC[C@@]2(C)C3CC[C@@H]2C(C)CCCC(C)C)C1 (some centres undefined) | 1.02
CC12CCC3C(CC=C4CC(O)CCC43C)C1CCC2=O (centres undefined) | 0.917
CC(=O)O[C@H]1C[C@@H](OC(C)=O)C(C)(C)C2C[C@@H](OC(C)=O)[C@]3(C)C(CC[C@@]4(C)[C@H](c5ccoc5)C(=O)[C@H]5O[C@]543)[C@]21C (some centres undefined) | 1.04

Below: the item to evaluate.
Entry CC(=O)O[C@H]1CC[C@@]2(C)C(=CCC3C2CC[C@]2(C)C(=O)CCC32)C1 (some centres undefined) — recorded normalized growth = 0.887

* * *

Item-by-item account of normalized growth
Test Summary: chemical genetic growth profiling, strain panel (AID 1159580);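 further: tested at 20 µM; growth read once vehicle control cultures reached saturation at 30 °C; 1 = growth at the plate median or of vehicle wells; lower values mean less growth of the strain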
Protocol Conditions: S. cerevisiae deletion strains, growth OD, locus YDL134C, strain PPH21, hits give low values
About 2,000 (36%) of roughly 5,500 compounds were called active. Inconclusive results (about 18%) are left out. The list shows a part of the results.
Lab note: record the figure alone, no unit after it.

Sample records with normalized growth:
CC[C@@H](C(=O)[C@@H](C)[C@@H](O)[C@H](C)[C@@H]1O[C@@H]([C@@H](CC)C(=O)O)CC[C@@H]1C)[C@H]1OC2(C=C[C@@H](O)[C@]3(CC[C@@](C)([C@H]4CC[C@](O)(CC)[C@H](C)O4)O3)O2)[C@H](C)C[C@@H]1C (stereo not given in full) | 0.871
CCOC(=O)c1cc(-c2ccc(N)cc2)oc1C | 0.939
CCn1cc(C(=O)O)c(=O)c2cnc(N3CCCC3)nc21 | 1.03
C[C@@]12C(=O)OC(=O)[C@]1(C)C1CCC2O1 | 0.939

Here is another compound to look at.
The measured normalized growth associated with `CCn1cc(C(=O)O)c(=O)c2cnc(N3CCNCC3)nc21` reads 0.986

* * *

Test Summary: chemical genetic growth profiling, strain panel (AID 1159580);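 further: tested at 20 µM; growth read once vehicle control cultures reached saturation at 30 °C; 1 = growth at the plate median or of vehicle wells; lower values mean less growth of the strain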
Protocol Conditions: S. cerevisiae deletion strains, growth OD, locus YOR316C, strain cot1, hits give low values
Out of some 5,500 compounds screened, about 2,000 (36%) were called active. Roughly 18% stayed inconclusive and do not appear here. The list shows a part of the results.
Examples of molecules with documented normalized growth follow.
The answer should be written as a number, with no unit following it.

Examples from the recorded data:
COc1c(C2COc3cc4c(cc3C2=O)CC(O)C(C)(C)O4)ccc2c1CCC(C)(C)O2 (stereo unspecified) | 1.01
Nc1nccs1 | 0.979
COc1ccc(-c2cc(C(F)F)nn2-c2ccc(S(N)(=O)=O)cc2)cc1F | 1.01

GET /value?item= `CCOP(=S)(OCC)SCSCC` &field=normalized growth returns 1

// field: normalized growth; key: CO[C@@H]1C[C@@H](C[C@H]2CC[C@H](C)[C@H]([C@@H](C)C(=O)O)O2)O[C@]2(O[C@](C)([C@H]3CC[C@@](C)(C4O[C@@H](C5O[C@@](O)(CO)[C@H](C)C[C@@H]5C)C[C@@H]4C)O3)C[C@H]2C)[C@@H]1C (stereo partly specified) ; value = 0.99

The value of normalized growth measured for the molecule `O=c1cccc2n1C[C@H]1CNCC2C1` turned out to be 0.994
